The measurements presented in this section are drawn from patent US4356186A.

System: stomach ulcer
Assay: Gastrointestinal ulcerogenicity
Assay type: in vivo, Male Wistar rats
Design: key: ulcer score 1 to 4, 4 = most severe ulcer
Conditions: 16 mg/kg p.o., after 6 hours; score 1 to 4
assay_metric: Average score of stomach ulcer
Answers are plain numbers.

Known Average score of stomach ulcer results, listed for orientation:
[[record]]
molecule = "CC(C(N)=O)c1ccc2c(c1)SCC1CCCCC1C2=O (single isomer, unassigned)"
measurement_target = "stomach ulcer"
experimental_result = 1.67

[[record]]
molecule = "CCCCOC(=O)C(C)c1ccc2c(c1)SCC1CCCCC1C2=O (centres unmarked)"
measurement_target = "stomach ulcer"
experimental_result = 0.33

[[record]]
molecule = "CC(C(=O)O)c1ccc2c(c1)SCC1CCCCC1C2=O (centres unmarked) [F]"
measurement_target = "stomach ulcer"
experimental_result = 1.00

[[record]]
molecule = "COc1ccc2c(c1)c(CC(=O)O)c(C)n2C(=O)c1ccc(Cl)cc1 [Compound 1, Indomethacin, reference compound]"
measurement_target = "stomach ulcer"
experimental_result = 2.56


Note: attention shifts to another entry.
Exam item: Average score of stomach ulcer for CC(C(=O)O)c1ccc2c(c1)SCC1CCCCC1C2=O (centres unmarked) [H] ?
Marked response: 1.00

----------
Tested on: stomach ulcer
Assay: Gastrointestinal ulcerogenicity
Type: in vivo, Male Wistar rats
Set-up: key: ulcer score 1 to 4, 4 = most severe ulcer
Conditions: 32 mg/kg p.o., after 6 hours; score 1 to 4
Field: Average score of stomach ulcer. Provide a value for each of the compounds that follow.
Answers are plain numbers.

[[record]]
compound = "CC(C(=O)O)c1ccc2c(c1)SCC1CCCCC1C2=O (centres unmarked) [F]"
experimental_result = 1.00

[[record]]
compound = "CCCCOC(=O)C(C)c1ccc2c(c1)SCC1CCCCC1C2=O (centres unmarked)"
experimental_result = 1.33

[[record]]
compound = "CCOC(=O)C(C)c1ccc2c(c1)SCC1CCCCC1C2=O (centres unmarked)"
experimental_result = 0.33

[[record]]
compound = "CC(C(=O)OCc1ccccn1)c1ccc2c(c1)SCC1CCCCC1C2=O (centres unmarked)"
experimental_result = 0.67

[[record]]
compound = "CC(C(=O)OCCc1ccccn1)c1ccc2c(c1)SCC1CCCCC1C2=O (centres unmarked)"
experimental_result = 0.17


Hi team, please reply with Average score of stomach ulcer for each item in this list.
1. CC(C(N)=O)c1ccc2c(c1)SCC1CCCCC1C2=O (single isomer, unassigned)
2. CC(C(=O)OCCc1ccccc1)c1ccc2c(c1)SCC1CCCCC1C2=O (centres unmarked)
3. CC(C(=O)O)c1ccc2c(c1)SCC1CCCCC1C2=O (centres unmarked) [H]

Marked response:
[2.33, 0.56, 1.33]

----------
Test system: stomach ulcer
Assay: Gastrointestinal ulcerogenicity
Format: in vivo, Male Wistar rats
Settings: 64 mg/kg p.o., after 6 hours
assay_metric: Number of rats having a score of stomach ulcer of 2 or more/total number of rats used

[[record]]
compound = "CC(C(=O)OCCc1ccccn1)c1ccc2c(c1)SCC1CCCCC1C2=O (stereo not drawn) [P]"
experimental_result = "3/6"


Please state Number of rats having a score of stomach ulcer of 2 or more/total number of rats used for every compound in the list that follows.
1. CCCCOC(=O)C(C)c1ccc2c(c1)SCC1CCCCC1C2=O (stereo not drawn) [J]
2. CC(C(=O)OCc1ccccn1)c1ccc2c(c1)SCC1CCCCC1C2=O (stereo not drawn) [O]

Marked response:
["3/6", "4/6"]
